Reference source: PubChem BioAssay (NCI)

Test system: OVCAR-5 ovarian
experiment_description: NCI tumour cell line growth inhibition, 48 h
readout_type: TGI

Input line: Give TGI (OVCAR-5 ovarian) of the following compound: COC1C2c3cc4c(cc3CC(C#N)(c3ccccc32)N1C(=O)c1ccccc1)OCO4 (centres undefined)
Output line: > 100 µM

Input line: Give TGI (OVCAR-5 ovarian) of the following compound: CC1NC(=O)C2=C1C(N)=NC(=O)C2 (centres undefined)
Output line: > 100 µM

Input line: Give TGI (OVCAR-5 ovarian) of the following compound: Nc1nc(=O)n([C@@H]2CS[C@H](CO)O2)cc1F
Output line: > 100 µM

Input line: Give TGI (OVCAR-5 ovarian) of the following compound: C/C=C/COC(=O)CO[N+](=O)[O-]
Output line: > 100 µM

Input line: Give TGI (OVCAR-5 ovarian) of the following compound: O=C(c1ccccc1)n1c(-c2ccccc2)cs/c1=N\S(=O)(=O)c1ccc(N2N=C3c4ccccc4CC3C2c2cccs2)cc1 (centres undefined)
Output line: > 100 µM

Input line: Give TGI (OVCAR-5 ovarian) of the following compound: CCn1c(=O)c2nc(SC)sc2n(-c2ccccc2)c1=O
Output line: > 100 µM

Input line: Give TGI (OVCAR-5 ovarian) of the following compound: O=C(Nc1cccc2ccccc12)c1ccccc1
Output line: > 100 µM

Input line: Give TGI (OVCAR-5 ovarian) of the following compound: O=C(Nc1ccccc1O)c1ccc(NS(=O)(=O)c2cccc3cccnc23)cc1
Output line: > 12.7 µM

Input line: Give TGI (OVCAR-5 ovarian) of the following compound: CC1(C)CC(=O)c2c(nc3c(ccc4ccccc43)c2-c2ccc(NC(=O)CCCCC(=O)Nc3ccc(-c4c5c(nc6c4ccc4ccccc46)CC(C)(C)CC5=O)cc3)cc2)C1
Output line: > 100 µM

Input line: Give TGI (OVCAR-5 ovarian) of the following compound: O=S(=O)(/N=C(\NO)Nc1ccc(Cl)cc1)c1ccccc1
Output line: 56.6 µM

Input line: Give TGI (OVCAR-5 ovarian) of the following compound: Cc1nc2sccn2c1C(=O)NC(=O)Nc1ccc(Cl)cc1
Output line: > 100 µM

Input line: Give TGI (OVCAR-5 ovarian) of the following compound: CN1CCN(Cc2ccc3c(NNC(=O)c4ccccc4)nc4cc(F)ccc4n23)CC1
Output line: 70.2 µM

Input line: Give TGI (OVCAR-5 ovarian) of the following compound: CCCCCCCC(=O)OCC(=O)[C@]1(O)Cc2c(O)c3c(c(O)c2[C@@H](OC2CC(N)C(O)C(C)O2)C1)C(=O)c1c(OC)cccc1C3=O (some centres undefined)
Output line: 1.24 µM

Input line: Give TGI (OVCAR-5 ovarian) of the following compound: O=C(O)c1ccc(Nc2nc3cc(C(F)(F)F)ccc3n3cccc23)cc1
Output line: > 100 µM
